Kindly state quantification of the Northern blots, FAS for each of the entries shown.
Tested on: FAS
Assay: Northern blot quantification of FAS mRNA in liver of rats fed PUFA-supplemented fat free diet
Type: in vivo
Settings: rat liver RNA; female Wistar rats, fat free diet 2 weeks, then fatty acid 5% (w/w) in diet 2 weeks; ± standard deviation of three rats; normalized for 18S; fat free = 100
Write the number in % without appending the unit.

## Input Give reported quantification of the Northern blots, FAS value for CC/C=C\C/C=C\C/C=C\C/C=C\C/C=C\C/C=C\CCC(=O)O [DHA, docosahexaenoic acid]
## Output 27

## Input Quickly give me recorded quantification of the Northern blots, FAS for CC/C=C\C/C=C\C/C=C\C/C=C\C/C=C\CCCC(=O)O [EPA, eicosapentaenoic acid]
## Output 17

## Input Give the value of quantification of the Northern blots, FAS reported for the following: CCCCC/C=C\C/C=C\C/C=C\CCCCC(=O)O [GLA, gamma-linolenic acid]
## Output 17

## Input Look up and report measured quantification of the Northern blots, FAS for this entry: CCCCC/C=C\C/C=C\CCCCCCCC(=O)O [LA, linoleic acid]
## Output 47
